# Tested on: HCT-116
# assay overview: Inhibition of colony formation in human HCT-116 cells at 0.01 uM preincubated for 1 hr followed by exposure to 2 Gy gamma irradiation and measured after 1 week by crystal violet staining based […] assay relative to control
# Assay type: functional
# run parameters: HCT-116, light or radiation study, time 169 hrs
experimental readout: inhibition at 0.01 µM (%)
Numbers only, in %.

The following compounds have reported results that may help.
1) COCCCOc1ccc(-c2ccc3ncc(N(C)C(=O)NC(C)C)nc3c2)cn1    -24.2
2) Cc1cc(OCCCN2CCCCC2)ncc1-c1ccc2ncc(N(C)C(=O)NC(C)C)nc2c1    -19.8
3) CCCNC(=O)N(C)c1cnc2ccc(-c3ccc(OCCCN(C)C)nc3)cc2n1    77.4
4) CN(C)CCCOc1ccc(-c2ccc3ncc(N(C)C(=O)NC4CCCCC4)nc3c2)cn1    99.6
5) CC(C)NC(=O)N(C)c1cnc2ccc(-c3ccc(OCC4CCN(C)C4)nc3)cc2n1 (stereo not drawn)    32.9
6) CC(C)NC(=O)N(C)c1cnc2ccc(-c3ccc(OCCCN4CCCC4)nc3F)cc2n1    43.4
7) CC(C)NC(=O)N(C)c1cnc2ccc(-c3ccc(OCCCN4CCCCC4)nc3C#N)cc2n1    14
8) COCc1ccc(-c2ccc3ncc(C(N)=O)c(N[C@@H](C)C4CCOCC4)c3c2)cn1    13.2
9) CC(C)NC(=O)N(C)c1cnc2ccc(-c3ccc(OCCN4CCOCC4)nc3)cc2n1    16.9
10) CN(C)CCCOc1ccc(-c2ccc3ncc(N(C)C(=O)NC(C)(C)C)nc3c2)cn1    44.7

State the recorded inhibition at 0.01 µM for every item in the following list.
1. CN(C)CCCOc1ccc(-c2ccc3ncc(N(C)C(=O)Nc4cccc(C(F)(F)F)c4)nc3c2)cn1
2. CC(C)NC(=O)N(C)c1cnc2ccc(-c3cnc(OCCCN4CCCCC4)c(F)c3)cc2n1
3. CC(C)NC(=O)N(C)c1cnc2ccc(-c3ccc(OCCN4CCCCC4)nc3)cc2n1
4. CN(C)CCCOc1ccc(-c2ccc3ncc(N(C)C(=O)NC4CCCC4)nc3c2)cn1
5. CC(C)NC(=O)N(C)c1cnc2ccc(-c3ccc(OCCCN4CCOCC4)nc3)cc2n1

Reply |
1. -11.9
2. -3.96
3. 24
4. 91.9
5. 64.1

* * *

# assay system: UniProtKB Q13315
# assay overview: Inhibition of ATM (unknown origin) preincubated with compound for 30 mins followed by substrate addition and measured after 2 hrs by HTRF method
experimental readout: pIC50
Give bare numbers, as −log10 of the molar value.

The following compounds have reported results that may help.
1. COc1ccc(NC(=O)N(C)c2cnc3ccc(-c4ccc(OCCCN(C)C)nc4)cc3n2)cc1    8.52
2. CCN(CC)CCCOc1ccc(-c2ccc3ncc(N(C)C(=O)NC(C)C)nc3c2)cn1    9.00

State the recorded pIC50 for every item in the following list.
1. CCCCNC(=O)N(C)c1cnc2ccc(-c3ccc(OCCCN(C)C)nc3)cc2n1
2. CN(C)CCCOc1ccc(-c2ccc3ncc(N(C)C(=O)NC(C)(C)C)nc3c2)cn1
3. C=CCNC(=O)N(C)c1cnc2ccc(-c3ccc(OCCCN(C)C)nc3)cc2n1

Reply |
9.10
7.89
8.70

State the recorded pIC50 for every item in the following list.
1. CCNC(=O)N(C)c1cnc2ccc(-c3ccc(OCCCN(C)C)nc3)cc2n1
2. CC(C)NC(=O)N(C)c1cnc2ccc(-c3ccc(OCCCN4CCOCC4)nc3)cc2n1
3. CN(C)CCCOc1ccc(-c2ccc3ncc(N(C)C(=O)NC4CC4)nc3c2)cn1
4. CCCNC(=O)N(C)c1cnc2ccc(-c3ccc(OCCCN(C)C)nc3)cc2n1
5. CC(C)NC(=O)N(C)c1cnc2ccc(-c3ccc(OCCCN4CCCCC4)nc3)cc2n1

Reply |
1: 8.22; 2: 8.52; 3: 8.10; 4: 8.52; 5: 8.94

* * *

# assay system: Serine-protein kinase ATM (Homo sapiens)
# assay overview: Inhibition of ATM (unknown origin) preincubated with compound for 30 mins followed by substrate addition and measured after 2 hrs by HTRF method
Threshold 4 nM: IC50 strictly smaller gives 1, otherwise 0.

Worked cases, answers included:
1. CN(C)CCCOc1ccc(-c2ccc3ncc(N(C)C(=O)Nc4ccccc4Cl)nc3c2)cn1    1
2. CC(C)NC(=O)N(C)c1cnc2ccc(-c3ccc(OCCC4CCCN4C)nc3)cc2n1 (centres undefined)    0
3. CC(C)NC(=O)N(C)c1cnc2ccc(-c3ccc(OCC4CCN(C)C4)nc3)cc2n1 (centres undefined)    0

Ask | Does the reported IC50 of the following compound sit strictly below 4 nM? CC1CCC(NC(=O)N(C)c2cnc3ccc(-c4ccc(OCCCN(C)C)nc4)cc3n2)CC1 (centres undefined)
Reply | 1

Ask | Does the reported IC50 of the following compound sit strictly below 4 nM? CC(C)NC(=O)N(C)c1cnc2ccc(-c3ccc(OCCCCN(C)C)nc3)cc2n1
Reply | 0

Ask | Does the reported IC50 of the following compound sit strictly below 4 nM? CC(C)NC(=O)N(C)c1cnc2ccc(-c3ccc(OCCN(C)C)nc3)cc2n1
Reply | 0

Ask | Does the reported IC50 of the following compound sit strictly below 4 nM? CC(C)NC(=O)N(C)c1cnc2ccc(-c3ccc(OCCCN(C)C)nc3)cc2n1
Reply | 1

Ask | Does the reported IC50 of the following compound sit strictly below 4 nM? CC(C)NC(=O)N(C)c1cnc2ccc(-c3ccc(OCCCN4CCCC4)nc3)cc2n1
Reply | 1

* * *

Kindly state inhibition at 0.01 µM for each of the entries shown.
# Tested on: HCT-116
# assay overview: Inhibition of colony formation in human HCT-116 cells at 0.01 uM preincubated for 1 hr followed by exposure to 2 Gy gamma irradiation and measured after 1 week by crystal violet staining based […] assay relative to control
# Assay type: functional
# run parameters: HCT-116, light or radiation study, time 169 hrs
One number for each entry, in %.

The following molecules have reported results that may help.
1) CCNC(=O)N(C)c1cnc2ccc(-c3ccc(OCCCN(C)C)nc3)cc2n1    57.8
2) CC(C)NC(=O)N(C)c1cnc2ccc(-c3ccc(OCCN(C)C)nc3)cc2n1    -0.98
3) CC(C)NC(=O)N(C)c1cnc2ccc(-c3ccc(OC(C)CN(C)C)nc3)cc2n1 (stereo not drawn)    14.7
4) CC(C)NC(=O)N(C)c1cnc2ccc(-c3ccc(OCCCCN(C)C)nc3)cc2n1    20.2

State the recorded inhibition at 0.01 µM for every item in the following list.
1. CCN(CC)CCCOc1ccc(-c2ccc3ncc(N(C)C(=O)NC(C)C)nc3c2)cn1
2. CC1CCC(NC(=O)N(C)c2cnc3ccc(-c4ccc(OCCCN(C)C)nc4)cc3n2)CC1 (stereo not drawn)
3. CC(C)NC(=O)N(C)c1cnc2ccc(-c3ccc(OC4CCN(C)CC4)nc3)cc2n1
4. CN(C)CCCOc1ccc(-c2ccc3ncc(N(C)C(=O)Nc4ccc(Cl)cc4)nc3c2)cn1

Reply |
[72.8, 76.2, -7.74, 11.7]

* * *

Kindly state Activity for each of the entries shown.
# assay system: Serine-protein kinase ATM (Homo sapiens, UniProt Q13315)
# Sequence (Q13315 whole entry): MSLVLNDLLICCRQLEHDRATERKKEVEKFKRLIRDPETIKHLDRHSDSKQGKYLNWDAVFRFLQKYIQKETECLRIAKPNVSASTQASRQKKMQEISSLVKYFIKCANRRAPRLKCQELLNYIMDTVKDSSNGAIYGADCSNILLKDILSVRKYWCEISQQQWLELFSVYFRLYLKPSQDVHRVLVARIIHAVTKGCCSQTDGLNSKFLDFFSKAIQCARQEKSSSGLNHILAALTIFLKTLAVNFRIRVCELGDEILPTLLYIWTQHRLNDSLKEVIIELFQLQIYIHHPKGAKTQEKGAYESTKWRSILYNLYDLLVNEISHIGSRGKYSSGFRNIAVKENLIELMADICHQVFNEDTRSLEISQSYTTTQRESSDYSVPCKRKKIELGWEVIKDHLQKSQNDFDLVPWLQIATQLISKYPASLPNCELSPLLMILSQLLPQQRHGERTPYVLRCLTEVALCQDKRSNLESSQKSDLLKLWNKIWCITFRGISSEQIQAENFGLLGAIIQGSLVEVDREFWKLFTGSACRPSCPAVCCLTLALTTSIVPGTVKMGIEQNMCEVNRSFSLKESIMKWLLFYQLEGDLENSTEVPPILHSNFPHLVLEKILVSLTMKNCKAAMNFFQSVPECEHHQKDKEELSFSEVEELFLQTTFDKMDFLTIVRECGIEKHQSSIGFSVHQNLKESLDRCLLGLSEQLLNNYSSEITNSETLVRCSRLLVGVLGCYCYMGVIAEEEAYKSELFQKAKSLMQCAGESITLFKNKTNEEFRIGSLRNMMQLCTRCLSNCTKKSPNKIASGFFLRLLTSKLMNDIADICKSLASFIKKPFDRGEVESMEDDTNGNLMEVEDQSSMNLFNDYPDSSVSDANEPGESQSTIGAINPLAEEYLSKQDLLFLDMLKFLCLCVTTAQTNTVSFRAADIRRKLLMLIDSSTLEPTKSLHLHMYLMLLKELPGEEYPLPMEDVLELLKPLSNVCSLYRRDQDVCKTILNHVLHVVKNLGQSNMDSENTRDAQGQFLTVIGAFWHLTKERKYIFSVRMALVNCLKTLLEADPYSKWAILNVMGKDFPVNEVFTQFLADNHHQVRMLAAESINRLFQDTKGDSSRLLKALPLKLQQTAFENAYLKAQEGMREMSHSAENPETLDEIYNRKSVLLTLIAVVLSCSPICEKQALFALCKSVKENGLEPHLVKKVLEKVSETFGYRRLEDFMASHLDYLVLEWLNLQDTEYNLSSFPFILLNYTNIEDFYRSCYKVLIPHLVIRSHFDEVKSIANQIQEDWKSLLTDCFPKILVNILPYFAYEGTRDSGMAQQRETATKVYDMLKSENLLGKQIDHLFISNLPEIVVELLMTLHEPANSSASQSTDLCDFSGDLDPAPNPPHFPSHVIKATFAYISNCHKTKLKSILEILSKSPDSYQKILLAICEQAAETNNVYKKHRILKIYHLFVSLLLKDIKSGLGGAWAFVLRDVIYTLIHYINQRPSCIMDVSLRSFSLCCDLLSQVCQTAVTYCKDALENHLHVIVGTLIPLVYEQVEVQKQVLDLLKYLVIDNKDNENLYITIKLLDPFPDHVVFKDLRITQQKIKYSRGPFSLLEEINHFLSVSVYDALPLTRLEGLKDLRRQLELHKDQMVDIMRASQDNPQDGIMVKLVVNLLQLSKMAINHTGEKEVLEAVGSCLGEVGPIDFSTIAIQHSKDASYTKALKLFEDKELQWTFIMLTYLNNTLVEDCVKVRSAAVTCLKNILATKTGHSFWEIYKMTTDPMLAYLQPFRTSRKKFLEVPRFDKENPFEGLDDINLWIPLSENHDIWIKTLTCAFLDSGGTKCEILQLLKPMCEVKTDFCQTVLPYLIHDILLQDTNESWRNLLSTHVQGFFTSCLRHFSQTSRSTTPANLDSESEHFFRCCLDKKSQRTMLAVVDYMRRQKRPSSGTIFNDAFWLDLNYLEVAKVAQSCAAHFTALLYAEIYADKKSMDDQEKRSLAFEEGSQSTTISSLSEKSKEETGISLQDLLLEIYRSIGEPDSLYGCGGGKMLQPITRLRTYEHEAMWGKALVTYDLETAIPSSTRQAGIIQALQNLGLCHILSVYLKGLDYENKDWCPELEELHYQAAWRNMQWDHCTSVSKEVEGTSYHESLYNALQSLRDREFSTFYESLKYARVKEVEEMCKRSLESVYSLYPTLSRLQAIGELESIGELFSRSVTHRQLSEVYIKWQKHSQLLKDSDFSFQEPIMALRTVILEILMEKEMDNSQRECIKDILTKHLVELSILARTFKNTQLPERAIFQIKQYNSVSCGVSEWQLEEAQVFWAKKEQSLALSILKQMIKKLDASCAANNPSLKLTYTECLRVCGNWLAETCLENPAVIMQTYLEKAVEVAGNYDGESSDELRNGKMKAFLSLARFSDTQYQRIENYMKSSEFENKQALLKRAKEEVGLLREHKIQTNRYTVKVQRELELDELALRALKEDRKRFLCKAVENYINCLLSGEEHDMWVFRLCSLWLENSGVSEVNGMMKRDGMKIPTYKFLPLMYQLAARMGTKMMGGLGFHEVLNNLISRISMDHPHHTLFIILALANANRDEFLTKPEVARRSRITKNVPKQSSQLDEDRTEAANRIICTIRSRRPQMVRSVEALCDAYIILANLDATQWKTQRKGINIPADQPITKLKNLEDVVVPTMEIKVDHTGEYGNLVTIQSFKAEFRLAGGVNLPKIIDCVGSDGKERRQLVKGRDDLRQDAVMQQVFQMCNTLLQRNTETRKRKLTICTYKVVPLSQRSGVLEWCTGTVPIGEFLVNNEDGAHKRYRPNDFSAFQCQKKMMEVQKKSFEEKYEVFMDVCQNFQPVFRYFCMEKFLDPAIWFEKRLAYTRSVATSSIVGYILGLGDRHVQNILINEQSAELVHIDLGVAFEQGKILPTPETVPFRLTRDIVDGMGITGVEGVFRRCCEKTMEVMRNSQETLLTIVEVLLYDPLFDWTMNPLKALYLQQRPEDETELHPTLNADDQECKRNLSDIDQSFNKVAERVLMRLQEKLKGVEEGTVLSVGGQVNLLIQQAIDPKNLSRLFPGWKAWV
# assay overview: Inhibition of ATM (unknown origin) assessed as remaining activity at 0.01 uM preincubated with compound for 30 mins followed by substrate addition and measured after 2 hrs by HTRF method relative to control
# run parameters: time 2.5 hrs
Numbers only, in %.

The following compounds have reported results that may help.
1) CC(C)NC(=O)N(C)c1cnc2ccc(-c3ccc(OCCCN4CCCCC4)nc3C#N)cc2n1    26
2) CN(C)CCCOc1ccc(-c2ccc3ncc(N(C)C(=O)NC(C)(C)C)nc3c2)cn1    22
3) CC(C)NC(=O)N(C)c1cnc2ccc(-c3ccc(OC4CCC(N(C)C)CC4)nc3)cc2n1 (centres undefined)    108
4) Cc1cc(OCCCN2CCCCC2)ncc1-c1ccc2ncc(N(C)C(=O)NC(C)C)nc2c1    96
5) CCCCNC(=O)N(C)c1cnc2ccc(-c3ccc(OCCCN(C)C)nc3)cc2n1    3

State the recorded Activity for every item in the following list.
1. CN(C)CCCOc1ccc(-c2ccc3ncc(N(C)C(=O)NC4CC4)nc3c2)cn1
2. CC(C)NC(=O)N(C)c1cnc2ccc(-c3ccc(OCCCN4CCCCC4)nc3)cc2n1
3. CN(C)CCCOc1ccc(-c2ccc3ncc(N(C)C(=O)N[C@]45C[C@@H]6C[C@H](C[C@@H](C6)C4)C5)nc3c2)cn1

Reply |
1: 17; 2: 2; 3: 37

Ask | What value of Activity has been reported for the following compound? CC(C)NC(=O)N(C)c1cnc2ccc(-c3ccc(OCCCN4CCCC4=O)nc3)cc2n1
Reply | 106

* * *

Kindly state Activity for each of the entries shown.
# assay system: Serine-protein kinase ATM (Homo sapiens)
# assay overview: Inhibition of ATM (unknown origin) assessed as remaining activity at 1 uM preincubated with compound for 30 mins followed by substrate addition and measured after 2 hrs by HTRF method relative to control
# run parameters: time 2.5 hrs
Give bare numbers, in %.

The following compounds have reported results that may help.
1) C=CCNC(=O)Nc1cnc2ccc(-c3ccc(OCCCN(C)C)nc3)cc2n1    -3
2) CC(C)NC(=O)N(C)c1cnc2ccc(-c3ccc(OCCCCN(C)C)nc3)cc2n1    -1
3) CC(C)NC(=O)N(C)c1cnc2ccc(-c3cnc(OCCCN4CCCCC4)c(F)c3)cc2n1    6
4) CC(C)NC(=O)N(C)c1cnc2ccc(-c3cnc(OCCCN4CCCCC4)c(C(F)(F)F)c3)cc2n1    10
5) CC(C)NC(=O)N(C)c1cnc2ccc(-c3ccc(OCCC4CCCN4C)nc3)cc2n1 (centres undefined)    -3

State the recorded Activity for every item in the following list.
1. Cc1nc(OCCCN2CCCCC2)ccc1-c1ccc2ncc(N(C)C(=O)NC(C)C)nc2c1
2. Cc1cc(OCCCN2CCCCC2)ncc1-c1ccc2ncc(N(C)C(=O)NC(C)C)nc2c1
3. COCCCOc1ccc(-c2ccc3ncc(N(C)C(=O)NC(C)C)nc3c2)cn1
4. CCCNC(=O)Nc1cnc2ccc(-c3ccc(OCCCN(C)C)nc3)cc2n1

Reply |
[-4, 22, 43, -4]

Origin of values: ChEMBL document CHEMBL5346961
